Target: PRMT5 (Homo sapiens)
Construct: purchased Viva (custom protein)
Sequence (O14744 whole entry): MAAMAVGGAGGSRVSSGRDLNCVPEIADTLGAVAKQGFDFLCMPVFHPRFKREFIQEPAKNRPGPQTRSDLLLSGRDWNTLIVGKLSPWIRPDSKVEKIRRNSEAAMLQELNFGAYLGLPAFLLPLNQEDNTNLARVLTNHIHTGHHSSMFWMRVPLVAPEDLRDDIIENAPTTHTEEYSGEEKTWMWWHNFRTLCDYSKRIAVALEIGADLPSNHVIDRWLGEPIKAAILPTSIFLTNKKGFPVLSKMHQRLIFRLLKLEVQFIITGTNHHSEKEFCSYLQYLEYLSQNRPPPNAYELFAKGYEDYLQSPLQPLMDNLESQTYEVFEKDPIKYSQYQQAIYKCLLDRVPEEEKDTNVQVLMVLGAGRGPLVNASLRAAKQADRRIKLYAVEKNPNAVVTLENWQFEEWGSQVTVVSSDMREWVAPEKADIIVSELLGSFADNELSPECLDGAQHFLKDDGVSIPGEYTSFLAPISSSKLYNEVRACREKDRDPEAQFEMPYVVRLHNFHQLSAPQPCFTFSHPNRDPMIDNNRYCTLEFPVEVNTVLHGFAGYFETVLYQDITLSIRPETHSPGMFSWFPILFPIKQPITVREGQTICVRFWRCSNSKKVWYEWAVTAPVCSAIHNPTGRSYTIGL
Sequence (Q9BQA1 whole entry partner): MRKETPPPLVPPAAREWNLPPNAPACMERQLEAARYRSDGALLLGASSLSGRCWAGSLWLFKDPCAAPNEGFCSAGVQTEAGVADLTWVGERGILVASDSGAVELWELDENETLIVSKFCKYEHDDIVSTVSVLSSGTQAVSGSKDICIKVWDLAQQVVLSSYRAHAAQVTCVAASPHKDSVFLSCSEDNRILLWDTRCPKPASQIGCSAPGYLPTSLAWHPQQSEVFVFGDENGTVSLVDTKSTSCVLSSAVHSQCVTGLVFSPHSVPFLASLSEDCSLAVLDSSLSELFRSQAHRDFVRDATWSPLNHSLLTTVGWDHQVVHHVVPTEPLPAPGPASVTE
Experiment: PRMT5 biochemical IC50 assay with no cofactor
Settings: PRMT5, no cofactor; read-out: No Cofactor/ rel IC50
pIC50: −log10 of the molar value.
Documented pIC50 across a set of molecules

// solved cases for pIC50 follow
>>> result("CCc1cc(NC(=O)C(=O)N2C[C@@H](C)CC[C@@H]2c2ccc(NC3CCN(C)CC3)nc2)cnc1N [Compound 1306]")
"> 7.30"
>>> result("Cc1cncc(NC(=O)C(=O)N2C[C@H](C)CC[C@H]2c2cccc(C)c2)c1 (single isomer, unassigned) [Compound 10]")
"6.30 to 7.30"
>>> result("C[C@H]1CC[C@H](c2ccc3sc(CCN4CCCC4)nc3c2)N(C(=O)C(=O)Nc2cnc(N)c(C3COC3)c2)C1 [Compound 1379]")
"6.30 to 7.30"

**Q:** Notebook entry, PRMT5 (Homo sapiens) assay: pIC50 of CCc1cc(NC(=O)C(=O)N2C[C@@H](C)CC[C@@H]2c2ccc3sc(C45CC(C4)N(C)C5)nc3c2)cnc1N [Compound 1372] = ?
**A:** > 7.30

**Q:** Notebook entry, PRMT5 (Homo sapiens) assay: pIC50 of CCc1cc(NC(=O)C(=O)N2C[C@@H](C)CC[C@@H]2c2ccc3sc([C@H]4CN(C)C(=O)CN4C)nc3c2)cnc1N [Compound 1385] = ?
**A:** > 7.30

**Q:** Notebook entry, PRMT5 (Homo sapiens) assay: pIC50 of Cc1cncc(NC(=O)C(=O)N2C[C@@H](C)CC[C@@H]2c2cccc(F)c2)c1 (single isomer, unassigned) [Compound 77] = ?
**A:** < 6.30

**Q:** Notebook entry, PRMT5 (Homo sapiens) assay: pIC50 of CCc1cc(NC(=O)C(=O)N2C[C@@H](C)CC[C@@H]2c2ccc(N3CCC4(CCCN(C)C4)CC3)cc2)cnc1N (single isomer, unassigned) [Compound 1243] = ?
**A:** > 7.30

**Q:** Notebook entry, PRMT5 (Homo sapiens) assay: pIC50 of Cc1cncc(NC(=O)C(=O)N2C[C@H](C)CC[C@H]2c2cccc(C)c2)c1 (racemic) [Compound 8] = ?
**A:** < 6.30

---

Documented IC50 across a set of compounds
Target: PRMT5 (Homo sapiens)
Construct: purchased Viva (custom protein)
Assay: PRMT5 biochemical IC50 assay with SAM as cofactor
Details: PRMT5, SAM as cofactor; read-out: SAM IC50

// solved cases for IC50 follow
>>> result("Cc1cc(NC(=O)C(=O)N2CCCC[C@H]2c2ccncc2)cnc1N (single isomer, unassigned) [Compound 47]")
"> 500 nM"
>>> result("C[C@@H]1CC[C@@H](c2ccc3[nH]c(=O)ccc3c2)N(C(=O)C(=O)Nc2cncc(C(N)=O)c2)C1 (racemic) [Compound 670]")
"50 to 500 nM"
>>> result("CCc1cc(NC(=O)C(=O)N2C[C@@H](C)CC[C@@H]2c2ccc3sc(-c4cccnc4)nc3c2)cnc1N [Compound 1200]")
"50 to 500 nM"
>>> result("CCc1cc(NC(=O)C(=O)N2C[C@H](C)CC[C@H]2c2ccc(C(=O)NC)s2)cnc1N (single isomer, unassigned) [Compound 835]")
"> 500 nM"
>>> result("C[C@@H]1CN(C(=O)C(=O)Nc2cncc(C(N)=O)c2)C[C@H]2CCCC[C@@H]21 (racemic) [Compound 543]")
"50 to 500 nM"

**Q:** Notebook entry, PRMT5 (Homo sapiens) assay: IC50 of Cc1cncc(NC(=O)C(=O)N2C[C@H](C)CC[C@H]2c2cccc(Cl)c2)c1 (single isomer, unassigned) [Compound 90] = ?
**A:** > 500 nM

**Q:** Notebook entry, PRMT5 (Homo sapiens) assay: IC50 of CCc1cc(NC(=O)C(=O)N2C[C@@H](C)CC[C@@H]2c2ccc3sc(C4CCNCC4)nc3c2)cnc1N [Compound 1240] = ?
**A:** < 50 nM
